# TARGET SYSTEM: T1, recombinant human CTGF-Fc protein (Creative Biomart) (human)
# T1 construct: Bought; also called human CTGF with a human IgG1 Fc Tag
# T1 sequence (chain, as listed by the source limits assumed): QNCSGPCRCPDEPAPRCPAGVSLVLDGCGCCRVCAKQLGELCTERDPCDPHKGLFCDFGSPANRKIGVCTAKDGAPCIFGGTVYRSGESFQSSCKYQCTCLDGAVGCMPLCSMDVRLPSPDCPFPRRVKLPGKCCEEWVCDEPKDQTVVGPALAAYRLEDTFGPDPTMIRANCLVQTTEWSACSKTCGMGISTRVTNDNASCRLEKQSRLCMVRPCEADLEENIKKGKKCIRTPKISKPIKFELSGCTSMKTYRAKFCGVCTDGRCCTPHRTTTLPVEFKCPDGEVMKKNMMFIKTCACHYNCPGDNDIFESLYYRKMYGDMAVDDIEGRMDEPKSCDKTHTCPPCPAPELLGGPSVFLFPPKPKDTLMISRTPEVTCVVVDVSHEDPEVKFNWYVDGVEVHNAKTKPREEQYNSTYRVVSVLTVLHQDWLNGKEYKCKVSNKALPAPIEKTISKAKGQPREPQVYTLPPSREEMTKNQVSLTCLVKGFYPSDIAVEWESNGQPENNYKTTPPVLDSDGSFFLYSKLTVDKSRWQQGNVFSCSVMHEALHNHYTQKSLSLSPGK
# ASSAY OVERVIEW: SPR (Biacore)
RECORDED METRIC: pKd
The value called pKd is obtained by taking minus log10 of the concentration in mol/L.

**Q:** Look at this binder and give its reported pKd. lipocalin mutein of SEQ ID NO: 19 (designed binder, also called hNGAL mutein; not shown: C-terminal His-tag) QDSTSDLIPAPPLSKVPLQQNFQDNQFQGKWYVVGLAGNAILREDKQPAKMFATIYELKEDKSYDVTSVRFEAKSCSYTIKTFVPGSQPGEFTAGNIKSAPGQTSTLVRVVSTNYNQHAMVFHKAVSQNRESFVITLYGRTKELTSELKENFIRFSKSLGLPENHIVFPVPIDQCIDG
**A:** 9.04

***
**Q:** Look at this binder and give its reported pKd. lipocalin mutein of SEQ ID NO: 36 (designed binder, also called hNGAL mutein) QDSTSDLIPAPPLSKVPLQQNFQDNQFQGKWYVVGWAGNVKLREDKQPAKMSATIYELKEDKSYDVTEVVFEQKKCHYIIKTFVPGSQPGEFTAGDIKSPPGYTSSLVRVVSTNYNQHAMVFFKKVGQNREFFWITLYGRTKELTSELKENFIRFSKSLGLPENHIVFPVPIDQCIDG
**A:** 9.38

Reference source: patent US20240228562A1
